molecular target: human DPP1 enzyme (Homo sapiens (Human), UniProt P53634); test: Human DPP1 enzyme single-point percent inhibition testing (HL-60 lysate, H-Gly-Arg-AMC substrate); format: biochemical; conditions: read-out: human DPP1 enzyme % inhibition @ 10 nM, 10 nM compound, 400 μM H-Gly-Arg-AMC, 10 min pre-incubation at 37° C.
Sequence (P53634 25-134): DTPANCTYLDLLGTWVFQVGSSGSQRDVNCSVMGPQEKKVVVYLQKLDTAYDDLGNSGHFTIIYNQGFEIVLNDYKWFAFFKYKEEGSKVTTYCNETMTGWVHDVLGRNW
Sequence (P53634 231-394): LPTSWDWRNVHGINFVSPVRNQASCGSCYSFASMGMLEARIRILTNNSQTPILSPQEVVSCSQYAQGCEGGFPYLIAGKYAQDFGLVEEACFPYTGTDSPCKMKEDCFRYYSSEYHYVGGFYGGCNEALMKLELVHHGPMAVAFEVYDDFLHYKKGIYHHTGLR
Sequence (P53634 395-463): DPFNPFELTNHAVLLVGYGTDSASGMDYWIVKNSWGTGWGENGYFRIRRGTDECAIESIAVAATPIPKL
PROPERTY: inhibition at 0.01 µM

Examples with answers:
Lab note: measured inhibition at 0.01 µM of "CN(C)C[C@](C)(O)C(=O)N[C@H](C#N)Cc1ccc(-c2ccc3cnn(C)c3c2)cc1F" was 40 to 66.7%

Lab note: measured inhibition at 0.01 µM of "CN(C)C[C@H](O)C(=O)N[C@H](C#N)Cc1ccc(-c2ccc3c(c2)C2(CN(C)C2)OC3=O)cc1F" was 40 to 66.7%

***
Lab note: measured inhibition at 0.01 µM of "CN(C)C[C@H](O)C(=O)N[C@H](C#N)Cc1ccc(-c2cnc3c(n2)CCCC3)cc1" was ≤ 40%

Lab note: measured inhibition at 0.01 µM of "Cc1cn2cc(-c3ccc(C[C@@H](C#N)NC(=O)[C@@H](O)CN(C)C)c(F)c3)cc2c(C)n1" was ≤ 40%

Lab note: measured inhibition at 0.01 µM of "CN(C)C[C@](C)(O)C(=O)N[C@H](C#N)Cc1ccc(-c2ccc3cnn(C4CCN(C)CC4)c3c2)cc1F" was ≥ 66.7%

Lab note: measured inhibition at 0.01 µM of "CO[C@@H](CN(C)C)C(=O)N[C@H](C#N)Cc1ccc(-c2ccc3c(c2)C2(CN(C)C2)OC3=O)cc1F" was 40 to 66.7%

Lab note: measured inhibition at 0.01 µM of "CN(C)C[C@](C)(O)C(=O)N[C@H](C#N)Cc1ccc(-c2ccc3c(c2)C2(CN(C)C2)OC3=O)cc1" was ≥ 66.7%
